- Test description: HCT116 colon cancer cell growth inhibition, primary screen, CellTiter-Glo luminescence, NPC library (AID 1117342)
- Recorded conditions: at 20 µM (top of the series)
Calls of active or inactive are those of the source.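 The calls were made as follows: active = compounds that lower survival of HCT116 colon cancer cells in the luminescence readout, no numeric limit stated; inactive = the rest.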
Please reply with one of these outcomes: label 1 = active, label 0 = inactive

Example cases with answers are listed next.
> print(dat)
                                   compound    class
1  Cc1cc2c(OCC(CNC(C)(C)C)OC(=O)c3ccccc3)cccc2[nH]1 (stereo not given)  label 0
2  COc1cc(Nc2c(C#N)cnc3cc(OCCCN4CCN(C)CC4)c(OC)cc23)c(Cl)cc1Cl  label 1
3  COc1ccccc1Oc1c(NS(=O)(=O)c2ccc(C(C)(C)C)cc2)nc(-c2ncccn2)nc1OCCO  label 0
4               CC(=O)N[C@@H](CC(C)C)C(=O)O  label 0
5  Cc1ccccc1C(=O)Nc1ccc(C(=O)N2CCCC(O)c3cc(Cl)ccc32)c(C)c1 (stereo not given)  label 0
6                  Cc1ccc(=O)n(-c2ccccc2)c1  label 0
7  CCCCCCOC(=O)NC(=N)c1ccc(NCc2nc3cc(C(=O)N(CCC(=O)OCC)c4ccccn4)ccc3n2C)cc1  label 1
8  O=C(O)C1(C(=O)O)CCC1.[NH2-].[NH2-].[Pt+2]  label 0

Req: Test call for this compound, please: CCCC(=O)Nc1ccc(OCC(O)CNC(C)C)c(C(C)=O)c1 (stereo not given)
Resp: label 0

Req: Test call for this compound, please: N=C(N)N1CCc2ccccc2C1
Resp: label 0
